test system: SNB-19 CNS; assay: NCI tumour cell line growth inhibition, 48 h
TGI values, listed per item
Value Type: TGI

* O=CNCCCN1CCN(CCCNC=O)CC1 | > 100 µM
* O=C(O)CNC(=O)C(CSC(=O)OCC1c2ccccc2-c2ccccc21)NC(=O)CCC(NC(=O)OCC1c2ccccc2-c2ccccc21)C(=O)O (configuration not stated) | > 100 µM
* O=C1/C(=C/c2ccc(Cl)cc2)COc2ccc(O)cc21 | 5.18 µM
* O=P(O)(O)C(NCC(O)CN1CCOCC1)P(=O)(O)O (configuration not stated) | > 100 µM
* CCOC(=O)CCC(C(=O)OCC)n1nnc2ccc(Nc3c(C)[n+]([O-])c4ccc(Cl)cc4[n+]3[O-])cc21 (configuration not stated) | > 100 µM
* COC(=O)C(C(=O)C(=O)Nc1nc2ccc([N+](=O)[O-])cc2s1)c1nc2ccc(Cl)cc2[nH]c1=O (configuration not stated) | > 100 µM
* CC(=O)C(C)CCOC1(C)OCCC1C (configuration not stated) | > 100 µM
* CCOC(=O)COc1ccc(OCC(=O)OCC)c2c1C(=O)CCCC2=O | > 100 µM
* Clc1ccc(CCC(Cn2ccnc2)Sc2c(Cl)cccc2Cl)cc1 (configuration not stated) | 48.7 µM
* O=[N+]([O-])c1cccnc1NCC1(CO)CCCC1 | > 100 µM
* C=C1CC(Cn2ccc(=O)[nH]c2=O)(c2ccc(OC)cc2)OC1=O (configuration not stated) | > 100 µM
* COc1cc(C(=O)NO)ccc1O | > 100 µM
* NC1(C(=O)O)CCCC1C(=O)O (configuration not stated) | > 100 µM
* CC(=O)CC1(OC(=O)C2C(C=C(C)C)C2(C)C)C(=O)Nc2ccccc21 (configuration not stated) | > 100 µM
* COc1ccc(N2C(=O)C3CC(c4ccc(C)cc4)c4c([nH]c5ccccc45)C3C2=O)cc1 (configuration not stated) | > 56.3 µM
* Nc1ncnc2c1ncn2C1OC(CSCc2ccc(Cl)cc2)C(O)C1O (configuration not stated) | > 100 µM
* N#C/C(=C\c1cc(F)cc(F)c1)c1ccccn1 | > 100 µM
* O=C(O/N=C1/CCCC/C1=C\c1ccccc1)c1ccc(Cl)c(Cl)c1 | > 100 µM
* COc1ccc(=[O+]C)c2nssc1-2 | > 100 µM
* COc1cc(-c2n[nH]nc2-c2ccc3c(c2)OCCO3)cc(OC)c1OC | > 100 µM
* COc1ccc(/C=C/c2nnc(/C=C/c3ccc(OC)c(OC)c3)o2)cc1OC | 91.7 µM
* COC(=O)C(CC(=O)c1ccccc1)c1ccccc1NC(C)=O (configuration not stated) | > 100 µM

* * *

tested on: SK-MEL-28 melanoma; experiment: NCI tumour cell line growth inhibition, 48 h
Value Type: TGI

- C=CCNC(=O)N1CC(C)C(=O)Nc2ccccc21 (stereo unspecified): > 100 µM
- CC1CSC(=S)N1C(=O)N1C(=S)SCC1C (stereo unspecified): 41.9 µM
- COc1cc(-c2n[nH]nc2-c2ccc3c(c2)OCCO3)cc(OC)c1OC: 34.8 µM
- Cc1c(-c2ccccc2)c(C#N)c2nnn(-c3ccc([N+](=O)[O-])cc3)c(=O)n12: > 100 µM
- O=P(O)(O)C(NCC(O)CN1CCOCC1)P(=O)(O)O (stereo unspecified): > 100 µM
- O=C(Oc1cccc2cccnc12)c1cc2cc(CCl)ccc2oc1=O: > 100 µM
- CCN(Cc1ccncc1)c1ccc(CO)c(Cl)c1: > 100 µM
- CCCC[C@@H](C)/C=C1\CN2CCC[C@H]2[C@@](C)(O)[C@@H]1O: > 100 µM
- CS(=O)(=O)N1CC(CI)c2ccc(O)cc21 (stereo unspecified): 14.3 µM
- FC(F)(F)c1ccc(-c2cnc(Cl)nc2NC2CCCCCC2)cc1: > 100 µM
- Cn1ncc2c(Sc3ccc(Cl)cc3)ncnc21: > 100 µM

* * *

Let's look at some compounds and their measured TGI.
system: IGROV1 ovarian; assay: NCI tumour cell line growth inhibition, 48 h
Value Type: TGI (µM)

* Cn1cc(-c2nc3c(F)cc4[nH]ncc4c3c3c2CCCC3)c(C(F)(F)F)n1 | 28.7
* O=C1Nc2ccccc2/C1=C/C(=N/c1nnc(-c2ccccc2)s1)c1ccccc1 | 5.94
* O=C(c1c2c(cc3c1CC1(Cc4cc5c(cc4C1)CCCC5)C3)CCCC2)C(Br)Br | 27.1

* * *

tested on: HOP-92 NSCLC; assay: NCI tumour cell line growth inhibition, 48 h
Answer Criterion not met if TGI is under 30 µM, and Criterion met if it is 30 µM or more.

• O=C(OC1CC(n2cc(F)c(=O)[nH]c2=O)OC1CSC(=O)c1ccccc1)c1ccccc1 (centres undefined) = Criterion met
• COC(=O)/C(C#N)=C(\Nc1ccccc1)N1CCCC1 = Criterion met
• COc1cccc(C2c3cc4c(cc3OC(NNc3ccccc3)C2C)OCO4)c1O (centres undefined) = Criterion not met
• O=CNCCCN1CCN(CCCNC=O)CC1 = Criterion met
• CN(C)CC1CCC(=C2CCCC2)C1=O (centres undefined) = Criterion not met
• O=C1NC(N/N=C/c2c[nH]c3ccccc23)=N/C1=C\c1cccs1 = Criterion met
• CC(C)C1=C(O)C2=C(C(=O)C1=O)C1(C)CCCC(C)(C)C1CC2O (centres undefined) = Criterion not met
• C/C(=N\O)c1ccc2cc(Br)c3ccccc3c2c1 = Criterion met
• COc1cc2c(cc1OC)C1Cc3sccc3CN1CC2 (centres undefined) = Criterion met
• COc1cc2cc3c4c(cc(OC)c(OC)c4c2cc1OC)CCN3 = Criterion met
• CC(=O)c1sc2c(c1OC(=O)c1ccc(Cl)cc1)c(=O)n(-c1ccccc1)c(=S)n2-c1ccccc1 = Criterion not met
• COc1ccc(N2C(=O)C3CC(c4ccc(C)cc4)c4c([nH]c5ccccc45)C3C2=O)cc1 (centres undefined) = Criterion met
• Cc1ccc(-c2c(C#N)[n+](=O)c3cc(Cl)c(Cl)cc3n2[O-])cc1 = Criterion not met
• Cn1ncc2c(Sc3ccc(Cl)cc3)ncnc21 = Criterion met
• COC(=O)CCCC(=O)NC1=C(Nc2ccc(OC)cc2)C(=O)c2ccccc2C1=O = Criterion met
• COC(=O)c1c(OC(C)=O)ccc2c1c1c(OC(C)=O)c3ccccc3c(OC(C)=O)c1n2C = Criterion met
• C=CN1CCN(c2ccccc2)P1(=O)Oc1ccccc1 (centres undefined) = Criterion met
• CS(=O)(=O)N1CC(CI)c2ccc(O)cc21 (centres undefined) = Criterion not met
• Cn1cc(-c2nc3c(F)cc4[nH]ncc4c3c3c2CCCC3)c(C(F)(F)F)n1 = Criterion met
• CC(=O)N1CCc2[nH]c3ccccc3c2CC1 = Criterion met
• c1ccc(-c2cc(-c3cccs3)c(-c3cccs3)s2)cc1 = Criterion met
• C=CCCC1CCCNC1=S (centres undefined) = Criterion met
• CN(C)C=Nc1ccc2[nH]c3ccccc3c2c1 = Criterion met
• CCCc1c(Cl)nc(Cl)nc1Cl = Criterion not met

* * *

tested on: MDA-MB-435; test: NCI tumour cell line growth inhibition, 48 h
Parameter: TGI. Scope: all listed entries.
Value Type: TGI

• CN(C)C=Nc1ccc2[nH]c3ccccc3c2c1 = 33.9 µM
• CC(=O)c1sc2c(c1OC(=O)c1ccc(Cl)cc1Cl)c(=O)n(-c1ccccc1)c(=S)n2-c1ccccc1 = 31.9 µM
• N=[N+]=NC1C(O)C(CO)OC1n1cnc2c(N)ncnc21 (centres undefined) = > 100 µM
• C=CCNC(=O)N1CC(C)C(=O)Nc2ccccc21 (centres undefined) = > 100 µM
• COc1ccc(C2N(c3ccc(F)c([N+](=O)[O-])c3)C(=O)N3C(c4ccc(OC)cc4)N(c4ccc(F)c([N+](=O)[O-])c4)C(=O)N23)cc1 (centres undefined) = > 100 µM
• COc1ccc2c(c1)C(=O)c1c-2n(CCCCl)c(=O)c2cc(OC)c(OC)cc12 = > 100 µM
• COc1ccc(/C=C(\C#N)c2nc3ccccc3c(=O)[nH]2)cc1 = > 100 µM
• CCCCNc1nc2nc[nH]c2c(=O)[nH]1 = > 100 µM
• Cc1cc(-c2ncc(-c3cccnc3)cc2/C=C/c2ccccc2)cnc1-c1cccnc1 = > 100 µM

* * *

In this section we review reported TGI values for a set of compounds.
system: T-47D breast; test: NCI tumour cell line growth inhibition, 48 h
Value Type: TGI

• COc1cccc2c1-c1ccccc1[C@H](Nc1ccccc1)[C@@]2(C)O = 30.2 µM
• CC(=O)C(C)CCOC1(C)OCCC1C (stereo unspecified) = > 100 µM
• O=CNCCCN1CCN(CCCNC=O)CC1 = > 100 µM
• C=CCCC1CCCNC1=S (stereo unspecified) = > 100 µM
• CC(=O)OCC1OC(n2c(-c3ccc(C)cc3)cc(-c3ccco3)c(C#N)c2=S)C(OC(C)=O)C(OC(C)=O)C1OC(C)=O (stereo unspecified) = > 100 µM
• CCCC[C@@H](C)/C=C1\CN2CCC[C@H]2[C@@](C)(O)[C@@H]1O = > 100 µM
• CC(=O)CC1(OC(=O)C2C(C=C(C)C)C2(C)C)C(=O)Nc2ccccc21 (stereo unspecified) = > 100 µM
• c1ccc(CNCCN2CCNCC2)nc1 = > 100 µM
• COC(=O)c1c(OC(C)=O)ccc2c1c1c(OC(C)=O)c3ccccc3c(OC(C)=O)c1n2C = 50.5 µM
• NC(N)=NS(=O)(=O)c1ccc(Nc2c3ccccc3nc3c(C(=O)NNCCO)cccc23)cc1 = 0.296 µM
• Oc1ccc(-c2nn3c(CCCCCCCCc4nnc5sc(-c6ccc(O)cc6)nn45)nnc3s2)cc1 = > 100 µM
• COc1cc(-c2nc3ccccc3s2)ccc1OCCCCCOc1cc2c(cc1OC)C(=O)N1CCC[C@H]1C=N2 = 0.16 µM
• Cc1cc(NN)nc2n[nH]c(N)c12 = > 100 µM
• N#C/C(=N/Nc1nc[nH]c1C(N)=O)C(=O)Nc1ccccc1 = > 100 µM
• NCCOc1ncccc1/C=C1\c2ccccc2-c2ccc(F)cc21 = 2.74 µM
• O=C(O)CN1CCNCCNCC1 = > 100 µM
